The reported numbers originate from patent US7989459B2.

The following molecules are shown together with reported pKi values.
molecular target: PKC alpha (Homo sapiens)
pKi: −log10 of the molar value.

- MOLECULE: "NCCCNc1ncc2[nH]c(=O)n(Cc3c(F)cccc3F)c2n1"
  PARAMETER_MEASURED: "pKi"
  RECORDED_MEASUREMENT: "< 5.00"
- MOLECULE: "O=c1[nH]c2cnc(NCC3CCNC3)nc2n1Cc1cc(F)ccc1C(F)(F)F (stereo not drawn)"
  PARAMETER_MEASURED: "pKi"
  RECORDED_MEASUREMENT: "< 6.00"
- MOLECULE: "NCCCNc1ncc2[nH]c(=O)n(Cc3ccccc3C(F)(F)F)c2n1"
  PARAMETER_MEASURED: "pKi"
  RECORDED_MEASUREMENT: "< 5.00"
- MOLECULE: "O=c1[nH]c2cnc(NCC3CCNC3)nc2n1Cc1c(Cl)cccc1Cl (stereo not drawn)"
  PARAMETER_MEASURED: "pKi"
  RECORDED_MEASUREMENT: "< 6.00"
- MOLECULE: "O=c1[nH]c2cnc(NC[C@@H]3CCNC3)nc2n1Cc1ccccc1Cl"
  PARAMETER_MEASURED: "pKi"
  RECORDED_MEASUREMENT: "< 5.00"

q: For PKC alpha (Homo sapiens), give the measured pKi of the entry `O=c1[nH]c2cnc(NC[C@H]3CCNC3)nc2n1Cc1ccccc1C(F)(F)F`
a: < 6.00

q: Quote pKi with test system PKC alpha (Homo sapiens) for `NCCCNc1ncc2[nH]c(=O)n(Cc3ccccc3F)c2n1`
a: < 5.00

q: Retrieve pKi on PKC alpha (Homo sapiens); query `Cc1ccccc1Cn1c(=O)[nH]c2cnc(NCCCN)nc21`
a: < 5.00

q: State, for PKC alpha (Homo sapiens), measured pKi of the molecule listed here: `NCCCNc1ccc2[nH]c(=O)n(Cc3c(Cl)cccc3Cl)c2n1`
a: < 5.00

q: Give measured pKi for `NCCCNc1ncc2[nH]c(=O)n(Cc3c(F)cccc3Cl)c2n1` (PKC alpha (Homo sapiens)).
a: < 5.00

q: Recall the reported pKi of `O=c1[nH]c2cnc(NCC3CCNCC3)nc2n1Cc1cccc(Cl)c1` on PKC alpha (Homo sapiens) and write it down.
a: < 5.00

q: Report pKi on PKC alpha (Homo sapiens) for this entry: `NCCCNc1ncc2[nH]c(=O)n(Cc3cc(Cl)ccc3Cl)c2n1`
a: < 6.00

q: Fill in pKi for `NCCCNc1ncc2[nH]c(=O)n(Cc3ccccc3Cl)c2n1` tested with PKC alpha (Homo sapiens).
a: < 5.00

q: Give pKi for this entry on PKC alpha (Homo sapiens): `NCCCNc1ncc2[nH]c(=O)n(Cc3ccccc3OC(F)(F)F)c2n1`
a: < 5.00

q: Find the measured pKi of O=c1[nH]c2cnc(NCC3CCNC3)nc2n1[C@@H]1CCc2ccccc21 (stereo partly drawn) with PKC alpha (Homo sapiens) as test system.
a: < 5.00

###

molecular target: PKC delta (Homo sapiens, UniProt Q05655); assay: Ki Pan Vera (PV) PKC delta
Sequence (Q05655 whole entry): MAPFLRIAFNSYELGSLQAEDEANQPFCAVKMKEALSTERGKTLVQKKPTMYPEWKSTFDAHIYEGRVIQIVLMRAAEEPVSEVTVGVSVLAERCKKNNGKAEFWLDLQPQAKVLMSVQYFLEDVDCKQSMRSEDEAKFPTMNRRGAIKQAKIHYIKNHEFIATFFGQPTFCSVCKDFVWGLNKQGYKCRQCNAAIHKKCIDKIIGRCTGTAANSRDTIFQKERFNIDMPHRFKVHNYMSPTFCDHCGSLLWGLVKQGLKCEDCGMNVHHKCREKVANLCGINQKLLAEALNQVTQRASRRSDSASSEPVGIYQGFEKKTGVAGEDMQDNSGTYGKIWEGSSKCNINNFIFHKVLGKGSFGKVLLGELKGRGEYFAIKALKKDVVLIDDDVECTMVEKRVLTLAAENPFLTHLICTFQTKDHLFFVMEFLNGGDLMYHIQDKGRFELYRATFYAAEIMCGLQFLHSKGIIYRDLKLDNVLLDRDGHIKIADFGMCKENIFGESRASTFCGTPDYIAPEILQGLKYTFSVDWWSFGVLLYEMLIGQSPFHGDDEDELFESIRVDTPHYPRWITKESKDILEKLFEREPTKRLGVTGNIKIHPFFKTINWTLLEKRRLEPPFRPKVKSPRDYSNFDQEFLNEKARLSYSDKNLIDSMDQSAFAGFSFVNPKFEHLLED
pKi: −log10 of the molar value.
PARAMETER_MEASURED: pKi

Solved cases (8 shown):
- COMPOUND: "NCCCNc1ncc2[nH]c(=O)n(Cc3ccccc3Cl)c2n1 [Compound 124]"
  pKi: "< 7.00"
- COMPOUND: "NCCCNc1ncc2[nH]c(=O)n(Cc3c(F)cccc3Cl)c2n1 [Compound 118]"
  pKi: "< 7.00"
- COMPOUND: "O=c1[nH]c2cnc(NCC3CCNC3)nc2n1Cc1ccccc1Br (stereo not drawn) [Compound 104]"
  pKi: "< 7.82"
- COMPOUND: "O=c1[nH]c2cnc(NC[C@@H]3CCCNC3)nc2n1Cc1c(Cl)cccc1Cl [Compound 138]"
  pKi: "< 7.00"
- COMPOUND: "O=c1[nH]c2cnc(NCC3CCNC3)nc2n1Cc1ccccc1Cl (stereo not drawn) [Compound 113]"
  pKi: "< 7.82"
- COMPOUND: "O=c1[nH]c2cnc(NCC3CCNCC3)nc2n1Cc1c(Cl)cccc1Cl [Compound 205]"
  pKi: "< 7.00"
- COMPOUND: "O=c1[nH]c2cnc(NCC3CCNC3)nc2n1Cc1ccccc1F (stereo not drawn) [Compound 204]"
  pKi: "< 7.00"
- COMPOUND: "NCCCNc1ncc2[nH]c(=O)n(Cc3c(Cl)cccc3Cl)c2n1 [Compound 120]"
  pKi: "< 7.00"

Now for another entry.
q: Write down pKi measured for item COc1ccccc1Cn1c(=O)[nH]c2cnc(NCCCN)nc21 [Compound 218]
a: < 6.00
